assayed_system: T1, HSP70 (human HSP70; the antigen of the binning, humanization and variant binding assays) (human, UniProt P0DMV8 1-641, limits assumed)
T1 construct: also called hu HSP70
T1 sequence (P0DMV8 whole entry, change not shown): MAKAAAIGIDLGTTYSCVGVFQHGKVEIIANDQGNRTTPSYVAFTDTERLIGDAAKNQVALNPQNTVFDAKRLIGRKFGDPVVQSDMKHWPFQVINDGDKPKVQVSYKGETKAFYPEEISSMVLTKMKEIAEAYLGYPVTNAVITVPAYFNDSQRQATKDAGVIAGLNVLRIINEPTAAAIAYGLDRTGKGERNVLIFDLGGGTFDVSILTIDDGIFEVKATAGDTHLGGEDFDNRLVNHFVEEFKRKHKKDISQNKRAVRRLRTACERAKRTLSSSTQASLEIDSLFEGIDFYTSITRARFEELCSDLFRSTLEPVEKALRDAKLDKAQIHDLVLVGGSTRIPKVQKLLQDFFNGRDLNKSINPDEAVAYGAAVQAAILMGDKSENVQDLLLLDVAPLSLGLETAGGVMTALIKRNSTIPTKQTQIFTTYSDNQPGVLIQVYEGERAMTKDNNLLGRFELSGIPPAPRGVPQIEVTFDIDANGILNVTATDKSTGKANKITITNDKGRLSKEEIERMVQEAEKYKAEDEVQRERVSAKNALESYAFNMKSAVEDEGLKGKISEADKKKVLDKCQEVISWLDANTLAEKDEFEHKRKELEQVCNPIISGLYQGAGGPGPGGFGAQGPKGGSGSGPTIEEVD
assay_summary: BLI, antibody on sensor
Classify as follows. Reported kon greater than or equal to 40000 M⁻¹ s⁻¹: MET. Reported kon below: NOT MET.

h77A-3 (antibody, V domains shown) VH: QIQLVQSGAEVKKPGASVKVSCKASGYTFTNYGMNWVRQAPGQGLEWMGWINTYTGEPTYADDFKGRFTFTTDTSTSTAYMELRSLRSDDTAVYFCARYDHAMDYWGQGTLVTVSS VL: DVVMTQSPDSLAVSLGERVTINCKSSQSLLNSGTRKNYLAWYQQKPGQSPKLLIYWTSTRESGVPDRFSGSGSGTDFTLTISSLQAEDVAVYYCKQSYTLYTFGQGTKLEIK :: MET
h77A-2 (antibody, V domains shown) VH: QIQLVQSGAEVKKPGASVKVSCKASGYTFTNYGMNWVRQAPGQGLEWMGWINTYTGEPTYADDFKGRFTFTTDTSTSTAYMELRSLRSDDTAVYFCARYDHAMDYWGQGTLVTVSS VL: DIVMTQSPDSLSVSLGERATINCKSSQSLLNSGTRKNYLAWYQQKPGQPPRLLIYWTSTRESGVPDRFSGSGSGTDFTLTINTLQAEDVAVYYCKQSYTLYTFGQGTKLEIK :: MET
chimeric 77A with a human IgG2 Fc domain (antibody, V domains shown, also called Chimera IgG2; IgG2 Chimera) VH: QIQLVQSGPELKKPGETVKISCKASGYTFTNYGMNWVKQAPGKGLKWMGWINTYTGEPTYADDFKGRFAFSLETSATTAYLQINNLKNEDTATYFCARYDHAMDYWGQGTSVTVSS VL: DIVMSQSPSSLAVSAGEKVTMSCKSSQSLLNSGTRKNYLAWYQQKPGQSPKLLIYWTSTRESGVPDRFTGSGSGTDFTLTINSVQAEDLAVYYCKQSYTLYTFGGGTKLEIK :: MET

Exercise: Test whether the binder h77A-11 (antibody, V domains shown) VH: QVQLQQSGPEVKKPGASVKISCKTSGYTFTNYGMNWVRQAPGQGLEWMGWINTYTGEPTYADDFKGRVTMTTDTSTSTAYLELTGLMSDDTAVYFCARYDHAMDYWGQGTTVTVSS VL: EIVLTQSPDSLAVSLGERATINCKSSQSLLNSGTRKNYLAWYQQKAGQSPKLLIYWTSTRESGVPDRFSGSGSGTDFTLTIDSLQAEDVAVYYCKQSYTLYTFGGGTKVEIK records kon of 40000 M⁻¹ s⁻¹ or higher.
Key: MET

Exercise: Test whether the binder h77A-1 (antibody, V domains shown, also called hVH-1 + hVL-1) VH: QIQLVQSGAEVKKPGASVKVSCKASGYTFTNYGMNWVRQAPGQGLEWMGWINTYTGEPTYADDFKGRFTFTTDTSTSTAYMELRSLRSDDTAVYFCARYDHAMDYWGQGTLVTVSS VL: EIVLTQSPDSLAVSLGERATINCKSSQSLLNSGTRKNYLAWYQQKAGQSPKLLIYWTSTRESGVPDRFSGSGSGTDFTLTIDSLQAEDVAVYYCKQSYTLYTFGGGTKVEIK records kon of 40000 M⁻¹ s⁻¹ or higher.
Key: MET

Exercise: Test whether the binder h77A-24 (antibody, V domains shown) VH: QIQLVQSGPEVKKPGESVKVSCKASGYTFTNYGMNWVRQAPGKGLEWMGWINTYTGEPTYADDFKGRVTITRDTSASTAYMELSSLRSEDTAVYFCARYDHAMDYWGQGTSVTVSS VL: DIQMTQSPSSLSASVGDRVTITCKSSQSLLNSGTRKNYLAWYQQKPGKVPKLLIYWTSTRESGVPSRFSGSGSGTDFTLTISSLQPEDVATYYCKQSYTLYTFGGGTKLEIK records kon of 40000 M⁻¹ s⁻¹ or higher.
Key: NOT MET

Exercise: Test whether the binder h77A-10 (antibody, V domains shown) VH: QIQLVQSGAEVKKPGSSVKVSCKASGYTFTNYGMNWVRQAPGQGLEWMGWINTYTGEPTYADDFKGRFTFTADESTSTAYMELSSLRSEDTAVYFCARYDHAMDYWGQGTLVTVSS VL: DIVMTQSPDSLAVSLGERATINCKSSQSLLNSGTRKNYLAWYQQKPGQSPKLLIYWTSTRESGVPDRFSGSGSGTDFTLTISSLQAEDVAVYYCKQSYTLYTFGGGTKLEIK records kon of 40000 M⁻¹ s⁻¹ or higher.
Key: MET

Exercise: Test whether the binder h77A-21 (antibody, V domains shown) VH: QIQLVQSGPEVKKPGESVKVSCKASGYTFTNYGMNWVRQAPGKGLEWMGWINTYTGEPTYADDFKGRVTITRDTSASTAYMELSSLRSEDTAVYFCARYDHAMDYWGQGTSVTVSS VL: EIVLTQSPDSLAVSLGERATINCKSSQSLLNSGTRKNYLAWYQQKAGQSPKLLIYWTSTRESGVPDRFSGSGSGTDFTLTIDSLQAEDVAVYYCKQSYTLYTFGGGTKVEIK records kon of 40000 M⁻¹ s⁻¹ or higher.
Key: MET

Exercise: Test whether the binder h77A-4 (antibody, V domains shown) VH: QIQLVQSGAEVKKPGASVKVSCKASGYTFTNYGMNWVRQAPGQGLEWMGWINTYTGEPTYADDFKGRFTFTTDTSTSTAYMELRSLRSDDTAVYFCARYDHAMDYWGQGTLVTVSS VL: DIQMTQSPSSLSASVGDRVTITCKSSQSLLNSGTRKNYLAWYQQKPGKVPKLLIYWTSTRESGVPSRFSGSGSGTDFTLTISSLQPEDVATYYCKQSYTLYTFGGGTKLEIK records kon of 40000 M⁻¹ s⁻¹ or higher.
Key: NOT MET
